- Test system: Respiratory Syncytial Virus
- protocol: In vitro screening for activity against Respiratory Syncytial Virus (MTT tetrazolium colorimetric assay, HeLa cells)
- Assay type: cell-based
- conditions: human respiratory syncytial virus, 168 h; protection against RSV cytopathology in HeLa cells, 7 days after infection; pEC50 = −log of EC50 in molar units
Assign labels as follows, please: satisfied for EC50 below 0.004 µM; not satisfied for EC50 equal to or exceeding 0.004 µM.

# count of solved cases: 3
molecule	study_system	assigned_class
Cc1ccc(O)c(Cn2c(NC3CCN(C)CC3)nc3ccccc32)n1	Respiratory Syncytial Virus	not satisfied
Cc1cccc(NC(=O)c2ccc3nc(NC4CCN(C)CC4)n(Cc4nc(C)ccc4O)c3c2)c1	Respiratory Syncytial Virus	not satisfied
Cc1ccc(O)c(Cn2c(NC3CCN(CCO)CC3)nc3ccc(CCCN)cc32)n1.Cl [Compound 160, hydrochloride salt]	Respiratory Syncytial Virus	not satisfied

Exercise: # TODO verify EC50 < 0.004 µM strictly for this molecule: Cc1ccc(O)c(Cn2c(NC3CCN(CCN)CC3)nc3ccc(CCc4ccccc4)cc32)n1.Cl [Compound 143, hydrochloride salt]
Solution: satisfied

Exercise: Entry to check: Cc1cccc(C(=O)Nc2ccc3nc(NC4CCN(C)CC4)n(Cc4nc(C)ccc4O)c3c2)c1
Solution: not satisfied

Measured values drawn from patent US8278455B2 for this set.
